RALB by entry:
# Organism: Rattus norvegicus
# Experimental protocol: Open TG-GATES - Regimen: Single
# Assay type: toxicity, organism-based, Sprague-Dawley
# Design: regimen Single, gender Male, age 6 weeks
# Measurement context: in vivo, po, 0 mg/kg, 3 h, tissue Plasma, route gavage, dose level Control
Measured endpoint: RALB (g/dL)

{"Compound": "Cc1cccc(Nc2ccccc2C(=O)O)c1C", "Value unit": "g/dL", "Assay result": 3.5}
{"Compound": "Clc1c(Cl)c(Cl)c(Cl)c(Cl)c1Cl", "Value unit": "g/dL", "Assay result": 3.5}
{"Compound": "CC(CN1c2ccccc2Sc2ccccc21)N(C)C (stereo not given)", "Value unit": "g/dL", "Assay result": 3}
{"Compound": "CCOC(=O)[C@H](CCc1ccccc1)N[C@@H](C)C(=O)N1CCC[C@H]1C(=O)O", "Value unit": "g/dL", "Assay result": 3.7}
{"Compound": "C#C[C@]1(O)CC[C@H]2[C@@H]3CCC4=Cc5oncc5C[C@]4(C)[C@H]3CC[C@@]21C", "Value unit": "g/dL", "Assay result": 3}
{"Compound": "CN(C)[C@@H]1C(O)=C(C(N)=O)C(=O)[C@@]2(O)C(O)=C3C(=O)c4c(O)cccc4[C@@](C)(O)[C@H]3C[C@@H]12", "Value unit": "g/dL", "Assay result": 3.7}
{"Compound": "COc1cc([C@@H]2c3cc4c(cc3[C@@H](O[C@@H]3O[C@@H]5CO[C@@H](C)O[C@H]5[C@H](O)[C@H]3O)[C@H]3COC(=O)[C@H]23)OCO4)cc(OC)c1O [ETOPOSIDE]", "Value unit": "g/dL", "Assay result": 3.4}
{"Compound": "CN1C(C(=O)Nc2ccccn2)=C(O)c2sc(Cl)cc2S1(=O)=O", "Value unit": "g/dL", "Assay result": 3.5}
{"Compound": "CC(=O)Nc1nnc(S(N)(=O)=O)s1 [ACETAZOLAMIDE]", "Value unit": "g/dL", "Assay result": 3.1}
{"Compound": "C1CCC(C(CC2CCCCN2)C2CCCCC2)CC1 (stereo not given)", "Value unit": "g/dL", "Assay result": 3.2}
